Tested on: Actin
experiment_summary: siRNA transfection array, Actin reporter, HepG2 cells
Format: cell-based, human
experimental_conditions: EGFP intensity relative to Scramble II Duplex negative control (100%)
Below: a set of entries, each annotated with reported Actin, relative intensity ratio.

substance: STAT1b siRNA: siRNA SEQ ID NO: 72 (Dharmacon), targets human transcription factor ISGF-3 M97936 (GGAAGACCCAAUCCAGAUG; chemistry not given here)
target_of_assay: Actin
readout_units: %
Actin, relative intensity ratio: 363.0
--
substance: HSF-4 siRNA: siRNA SEQ ID NO: 61 (Dharmacon), targets human heat shock transcription factor 4 D87673 (GUCGCCUUCUACUUACAGC; chemistry not given here)
target_of_assay: Actin
readout_units: %
Actin, relative intensity ratio: 54.1
--
substance: RARB2 siRNA: siRNA SEQ ID NO: 67 (Dharmacon), targets human RARB transcript variant 2 NM_016152 (GACGGCCUUACCCUAAAUC; chemistry not given here)
target_of_assay: Actin
readout_units: %
Actin, relative intensity ratio: 149.0
--
substance: STAT2 siRNA: siRNA SEQ ID NO: 73 (Dharmacon), targets human interferon alpha induced transcriptional activator M97934 (GGUGCUCAUCUACUCUGUG; chemistry not given here)
target_of_assay: Actin
readout_units: %
Actin, relative intensity ratio: 82.3
--
substance: Rb siRNA: siRNA SEQ ID NO: 69 (Dharmacon), targets human retinoblastoma susceptibility mRNA M15400 (CUCUCACCUCCCAUGUUGC; chemistry not given here)
target_of_assay: Actin
readout_units: %
Actin, relative intensity ratio: 127.7
--
substance: NFAT3 siRNA: siRNA SEQ ID NO: 63 (Dharmacon), targets human NF-AT3 L41066 (GCCACUGACCCUACAGAUG; chemistry not given here)
target_of_assay: Actin
readout_units: %
Actin, relative intensity ratio: 51.1
--
substance: E2F siRNA: siRNA SEQ ID NO: 56 (Dharmacon), targets human E2F-1 M96577 (CUGACCAUCAGUACCUGGC; chemistry not given here)
target_of_assay: Actin
readout_units: %
Actin, relative intensity ratio: 75.4
--
substance: c-Jun siRNA: siRNA SEQ ID NO: 54 (Dharmacon), targets human c-jun J04111 (GGUGGCACAGCUUAAACAG; chemistry not given here)
target_of_assay: Actin
readout_units: %
Actin, relative intensity ratio: 108.1
--
substance: ER siRNA: siRNA SEQ ID NO: 57 (Dharmacon), targets human estrogen receptor M12674 (CCUUCUAGAAUGUGCCUGG; chemistry not given here)
target_of_assay: Actin
readout_units: %
Actin, relative intensity ratio: 60.8
--
substance: GR siRNA: siRNA SEQ ID NO: 58 (Dharmacon), targets human glucocorticoid receptor alpha M10901 (CUCGAAUGAGGACUGCAAG; chemistry not given here)
target_of_assay: Actin
readout_units: %
Actin, relative intensity ratio: 93.9
